target: T1, free FIXa (activated Factor IX) (human, UniProt P00740 47-191; P00740 227-461); experiment: BLI; class meaning: paragraph 914
T1 construct: BLI antigen bought from Haematologic Technologies (HCIXA-0050); also called factor IXa
READOUT KIND: binding result

{"BINDER": "BIIB-9-886 (antibody, V domains shown, IgG) VH: QVQLVQSGAEVKKPGASVKVSCKASGYTFTSYYMHWVRQAPGQGLEWMGIINPSGGSTSYAQKFQGRVTMTRDTSTSTVYMELSSLRSEDTAVYYCARDPAHSYLDAFDIWGQGTMVTVSS VL: DIQMTQSPSSVSASVGDRVTITCRASQGISSWLAWYQQKPGKAPKLLIYAASSLQSGVPSRFSGSGSGTDFTLTISSLQPEDFATYYCQQASSFPFTFGGGTKVEIK", "RESULT": "binds"}
{"BINDER": "BIIB-9-625 (antibody, V domains shown, IgG) VH: QLQLQESGPGLVKPSETLSLTCTVSGGSISSSSYAWGWIRQPPGKGLEWIGSIYYSGSTYYNPSLKSRVTISVDTSKNQFSLKLSSVTAADTAVYYCARDRGWYTEVLDIWGQGTMVTVSS VL: DIQMTQSPSSLSASVGDRVTITCRASQSISSYLNWYQQKPGKAPKLLIYAASSLQSGVPSRFSGSGSGTDFTLTISSLQPEDFATYYCQQSDTDPPTFGGGTKVEIK", "RESULT": "binds"}
